# test.method.notes: In vivo pharmacokinetic study in CD-1 mice
# assay.context: male, mouse, single oral gavage dose of 10 mg/kg, plasma
recorded.endpoint: log10 AUC (log10 of the value in ng·h/mL)
Please note: log10 values; quantity AUC; unit ng·h/mL.

{"columns": ["compound.structure.string", "log10 AUC"],
 "data": [
  ["COC(=O)c1c(N)c2ccc(C(F)(F)F)cc2n(-c2cccc3cnccc23)c1=O", 4.39],
  ["COC(=O)c1c(N)c2ccc(Br)cc2n(-c2ccc(N)cc2C)c1=O", 5.77],
  ["COC(=O)c1c(N)c2ccc(Br)cc2n(-c2ccc(C)nc2)c1=O", 5.37],
  ["COC(=O)c1c(N)c2ccc(C(F)(F)F)nc2n(-c2ccc(N)cc2Cl)c1=O", 5.66],
  ["COC(=O)c1c(N)c2ccc(Br)cc2n(-c2ccccc2)c1=O", 4.40],
  ["COC(=O)c1c(N)c2ccc(Br)cc2n(-c2ccc(N)nc2)c1=O", 4.52]
]}

// switching to the query compound
Given item COC(=O)c1c(N)c2ccc(Br)cc2n(-c2ccc(N)cc2)c1=O , the value recorded as its log10 AUC is 4.38

###

# test.method.notes: In vivo pharmacokinetic study in CD-1 mice
# assay.context: male, mouse, single oral gavage dose of 10 mg/kg, plasma
recorded.endpoint: Tmax (h)
Express the result in h but write the number alone.

{"columns": ["compound.structure.string", "Tmax [h]"],
 "data": [
  ["COC(=O)c1c(N)c2ccc(Br)cc2n(-c2ccc(N)cc2)c1=O", 1.67],
  ["COC(=O)c1c(N)c2ccc(C(F)(F)F)cc2n(-c2cccc3cnccc23)c1=O", 0.42],
  ["COC(=O)c1c(N)c2ccc(C(F)(F)F)cc2n(-c2ccccc2C)c1=O", 6],
  ["COC(=O)c1c(N)c2ccc(Br)cc2n(-c2ccc(N)cc2C)c1=O", 4],
  ["COC(=O)c1c(N)c2ccc(OC(F)(F)F)cc2n(-c2ccc(N)cc2)c1=O", 4],
  ["COC(=O)c1c(N)c2ccc(Br)cc2n(-c2ccccc2)c1=O", 6],
  ["COC(=O)c1c(N)c2ccc(Br)cc2n(-c2ccc(N)nc2)c1=O", 2.08],
  ["COC(=O)c1c(N)c2ccc(C(F)(F)F)nc2n(-c2cccc3cnccc23)c1=O", 0.5]
]}

Please look at the following compound next.
Tmax for COC(=O)c1c(N)c2ccc(Br)cc2n(-c2ccc(C)nc2)c1=O is 1

###

Record set of pIC50 for target or system human MAT2A enzyme (Homo sapiens (Human)).
Conceptually, pIC50 converts a concentration in mol/L into minus its log10.

Previously resolved entries follow.
{"columns": ["molecule", "system", "pIC50"],
 "data": [
  ["COC(=O)c1c(N)c2ccc(Br)cc2n(-c2ccc(C(C)O)nc2)c1=O (centres unmarked) [Example 291]", "human MAT2A enzyme (Homo sapiens (Human))", 8.66],
  ["COC(=O)c1c(N)c2ccc(Br)nc2n(-c2ccc(N)nc2)c1=O [Example 241]", "human MAT2A enzyme (Homo sapiens (Human))", 8.85],
  ["COC(=O)c1c(N)c2ccc(I)cc2n(-c2cccc3c2CCO3)c1=O [Example 59]", "human MAT2A enzyme (Homo sapiens (Human))", 8.29],
  ["COC(=O)c1c(N)c2ccc(Br)cc2n(-c2cccc3nccn23)c1=O [Example 195]", "human MAT2A enzyme (Homo sapiens (Human))", 8.31]
]}

Measured pIC50 of COC(=O)c1c(N)c2ccc(I)cc2n(-c2ccc(N)cc2)c1=O [Example 252] : 9.85
